- STUDY_TARGET: B1R receptor of the rat (Rattus norvegicus, UniProt P97583)
- Construct: host or cells: CHO K1 cells (Chinese hamster ovary), stably transfected
- Sequence (P97583 1-337): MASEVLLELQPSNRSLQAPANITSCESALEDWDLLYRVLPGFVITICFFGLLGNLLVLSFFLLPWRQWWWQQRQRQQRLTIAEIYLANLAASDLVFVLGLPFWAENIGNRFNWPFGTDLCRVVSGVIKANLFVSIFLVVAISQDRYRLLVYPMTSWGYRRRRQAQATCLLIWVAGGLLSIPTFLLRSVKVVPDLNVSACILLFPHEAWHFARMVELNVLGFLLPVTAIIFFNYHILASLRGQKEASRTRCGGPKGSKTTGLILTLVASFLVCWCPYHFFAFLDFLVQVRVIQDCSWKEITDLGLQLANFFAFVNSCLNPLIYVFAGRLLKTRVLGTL
- MEASUREMENT_DESCRIPTION: Functional study on the bradykinin receptor 1 (B1R), FLIPR Ca2+ assay, rB1R cells
- Format: cell-based
- TEST_PARAMETERS: CHO-K1, test substance 10 μM, agonist Des-Arg9-bradykinin 100 nM, % inhibition compared with the maximum achievable inhibition, read-out: B1R Antagonism, rat [10 μM] % Inhibition
ATTRIBUTE_MEASURED: inhibition at 10 µM (%)
Dear colleague, please return just the value in %, with no unit written.

Checklist item: inhibition at 10 µM tested on B1R receptor of the rat (Rattus norvegicus, UniProt P97583), entry COc1ccc(S(=O)(=O)N2c3ccccc3CCC2COCC(=O)N2CCN(C3CCN(C)CC3)CC2)cc1 (stereo not shown) , value? 99

What measured inhibition at 10 µM is associated with O=C(COCC1CCCCN1S(=O)(=O)c1ccc(Cl)c(Cl)c1)N1CCN(c2ccc(F)cc2)CC1 (stereo not shown) on B1R receptor of the rat (Rattus norvegicus, UniProt P97583)? 0

API: value(readout=inhibition at 10 µM, system=B1R receptor of the rat (Rattus norvegicus, UniProt P97583)) for record COc1cc(C)c(S(=O)(=O)N2CCCC2COCC(=O)N2CCC(N3CCOCC3)CC2)c(C)c1 (stereo not shown) 103

Missing value: inhibition at 10 µM, B1R receptor of the rat (Rattus norvegicus, UniProt P97583), entry COc1cc(C)c(S(=O)(=O)N2CCCCC2COCC(=O)Nc2cc(C)[nH]n2)c(C)c1 (stereo not shown) . Fill in? 107

* * *

Task for the reader: assign each of the following compounds its reported inhibition at 10 µM.
- STUDY_TARGET: B1R receptor of the rat (Rattus norvegicus)
- Construct: host or cells: CHO K1 cells (Chinese hamster ovary), stably transfected
- MEASUREMENT_DESCRIPTION: Functional study on the bradykinin receptor 1 (B1R), FLIPR Ca2+ assay, rB1R cells
- Format: cell-based
- TEST_PARAMETERS: CHO-K1, test substance 10 μM, agonist Des-Arg9-bradykinin 100 nM, % inhibition compared with the maximum achievable inhibition, read-out: B1R Antagonism, rat [10 μM] % Inhibition
Numbers only here, please. The scale is %.

Name the reported inhibition at 10 µM value associated with the compound CN1CCN(C2CCN(C(=O)COCC3CCCCN3S(=O)(=O)c3c(Cl)cccc3Cl)CC2)CC1 (stereo not drawn) [Example 278] 96.9

Query (compound): COc1cc(C)c(S(=O)(=O)N2CCCCC2COCC(=O)NCCCN2C(C)CCCC2C)c(C)c1 (stereo not drawn) [Example 260] ; field requested: inhibition at 10 µM 60.6

Given the compound CN(C)c1ccc(CNC(=O)COCC2CCCN2S(=O)(=O)c2c(Cl)cc(Cl)cc2Cl)cc1 (stereo not drawn) [Example 575] , what is its reported inhibition at 10 µM? 96.8

Query: inhibition at 10 µM; subject: O=C(COCC1CCCN1S(=O)(=O)c1c(Cl)cccc1Cl)N1CCN(Cc2ccc(Cl)cc2)CC1 (stereo not drawn) [Example 359] 103

I'd like to know its inhibition at 10 µM. The compound in question is O=C(COCC1CCCCN1S(=O)(=O)c1c(Cl)cccc1Cl)NC1CCN(Cc2ccccc2)CC1 (stereo not drawn) [Example 488] 102

Query: inhibition at 10 µM; subject: COc1cc(C)c(S(=O)(=O)N2CCCCC2COCC(=O)NCc2cccc(N3CCCCC3)c2)c(C)c1 (stereo not drawn) [Example 430] 101

inhibition at 10 µM for COc1cc(C)c(S(=O)(=O)N2CCCCC2COCC(=O)NCCCN2CCN(Cc3ccccc3)CC2)c(C)c1 (stereo not drawn) [Example 411] ? 100

# input compound: CN(C)Cc1ccc(CNC(=O)COCC2CCCN2S(=O)(=O)c2c(Cl)cc(Cl)cc2Cl)cc1 (stereo not drawn) [Example 73] ; wanted: its inhibition at 10 µM 106

Given the compound COc1cc(C)c(S(=O)(=O)N2CCCC2COCC(=O)N2CCN(Cc3ccc(Br)cc3)CC2)c(C)c1 (stereo not drawn) [Example 350] , what is its reported inhibition at 10 µM? 104

Data request, read-out inhibition at 10 µM, for COc1cc(C)c(S(=O)(=O)N2CCCC2COCC(=O)NC2CCN(Cc3ccccc3)CC2)c(C)c1 (stereo not drawn) [Example 477] 98.8

Fill in the blank: the reported inhibition at 10 µM of O=C(COCC1CCCCN1S(=O)(=O)c1c(Cl)cccc1Cl)NCc1ccc(CN2CCCC2)cc1 (stereo not drawn) [Example 313] is ____. 103

I'd like to know its inhibition at 10 µM. The compound in question is COc1cc(C)c(S(=O)(=O)N2CCCC2COCC(=O)N2CCN(CCn3c(C)ccc3C)CC2)c(C)c1 (stereo not drawn) [Example 269] 99

State the recorded inhibition at 10 µM for this entry: COc1cc(C)c(S(=O)(=O)N2CCCCC2COCC(=O)NC(CN2CCCC2)c2ccccc2)c(C)c1 (stereo not drawn) [Example 262] 99.7

Entry under review: COc1cc(C)c(S(=O)(=O)N2CCCCC2COCC(=O)N2CCC(c3ccccn3)C2)c(C)c1 (stereo not drawn) [Example 236] . Reported inhibition at 10 µM? 99.6

So what does the record say about inhibition at 10 µM for COc1cc(C)c(S(=O)(=O)N2CCCCC2COCC(=O)N2CCC(N3CCn4cccc4C3)CC2)c(C)c1 (stereo not drawn) [Example 211] ? 100
